Just for reference, patent US20150315188A1 is where these values come from.

- targetSystem: Human adrenergic α1B receptor (Homo sapiens, UniProt P35368)
- Sequence (P35368 whole entry): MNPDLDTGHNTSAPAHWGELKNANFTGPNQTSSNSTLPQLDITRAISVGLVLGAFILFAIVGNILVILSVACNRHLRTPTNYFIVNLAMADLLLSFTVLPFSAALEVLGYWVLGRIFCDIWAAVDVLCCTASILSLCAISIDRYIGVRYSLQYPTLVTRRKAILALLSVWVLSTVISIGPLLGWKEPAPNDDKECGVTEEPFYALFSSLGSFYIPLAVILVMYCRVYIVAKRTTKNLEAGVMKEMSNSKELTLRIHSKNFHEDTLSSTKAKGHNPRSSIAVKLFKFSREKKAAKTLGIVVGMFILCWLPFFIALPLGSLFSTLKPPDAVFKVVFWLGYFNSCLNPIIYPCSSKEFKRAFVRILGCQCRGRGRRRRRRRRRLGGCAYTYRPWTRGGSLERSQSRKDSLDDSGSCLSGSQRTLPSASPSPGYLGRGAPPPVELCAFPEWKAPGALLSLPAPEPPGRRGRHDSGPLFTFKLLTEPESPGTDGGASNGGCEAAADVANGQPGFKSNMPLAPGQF
- assayName: Radioligand binding, adrenergic α1B (Protocol Group B)
- Set-up: purchased Milipore (Millipore)
- particulars: 0.1 μM compound; Protocol Group B; read-out: Percentage inhibition of ligand binding, Adrenergic α1B (0.1 μM)
valueKind: inhibition at 0.1 µM (%)

Below are worked cases with known answers.
compound	unitDescriptor	measuredValue
Cc1cc(F)c2c(c1)c1c(n2CC(O)c2ccncc2)CCN2CCCC12 (single isomer, unassigned) [137c]	%	12
OCc1ccc2c(c1)c1c(n2CC(O)c2ccncc2)CCN2CCCC12 (centres unmarked)	%	15
Cc1cc(F)c2c(c1)c1c(n2CC(C)(O)c2cccnc2)CCN2CCCC12 (single isomer, unassigned) [79b]	%	28

[a] Cc1ccc2c(c1)c1c(n2CC(C)(O)c2ccc(N)nc2)CCN(C)C1 (centres unmarked)
[b] Cc1ccc2c(c1)c1c(n2CC(O)c2ccc(C(=O)NC3CC3)nc2)CCN(C)C1 (centres unmarked)
[c] CC(O)(Cn1c2c(c3cc(Cl)cc(F)c31)CN1CCCC1C2)c1cccnc1 (single isomer, unassigned) [63c]
[d] Cc1ccc2c(c1)c1c(n2CC(O)c2ccc(C(=O)N(C)C)nc2)CCN(C)C1 (centres unmarked)
Rank the items in ascending order with respect to inhibition at 0.1 µM. Submit the labels in the order that the ranking request calls for.
d, a, c, b
(d: -5%, a: 3%, c: 8%, b: 19%)

[a] CC(O)(Cn1c2c(c3cc(F)ccc31)C1CCCN1CC2)c1ccncc1 (single isomer, unassigned) [31a]
[b] Cc1cc2c3c(n(CC(C)(O)c4ccncc4)c2cc1Cl)CCN1CCCC31 (single isomer, unassigned) [50a]
Form field 'greater inhibition at 0.1 µM' accepts a or b ; which applies? Give the label under which the chosen entry appears.
b

----------
- targetSystem: Human adrenergic α2A receptor (Homo sapiens, UniProt P08913)
- Sequence (P08913 whole entry): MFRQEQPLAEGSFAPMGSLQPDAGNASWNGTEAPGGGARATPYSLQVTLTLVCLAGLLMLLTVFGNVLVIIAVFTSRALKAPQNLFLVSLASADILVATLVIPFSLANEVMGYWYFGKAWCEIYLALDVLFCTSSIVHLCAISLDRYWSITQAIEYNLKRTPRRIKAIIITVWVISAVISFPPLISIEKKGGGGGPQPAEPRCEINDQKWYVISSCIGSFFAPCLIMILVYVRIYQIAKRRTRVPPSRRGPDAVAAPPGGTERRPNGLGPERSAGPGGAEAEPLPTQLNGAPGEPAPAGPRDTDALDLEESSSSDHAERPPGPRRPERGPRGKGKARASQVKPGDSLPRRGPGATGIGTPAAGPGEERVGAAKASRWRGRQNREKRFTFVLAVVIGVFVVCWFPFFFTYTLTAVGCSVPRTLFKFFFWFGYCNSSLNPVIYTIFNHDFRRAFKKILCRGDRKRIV
- assayName: Radioligand binding, adrenergic α2A (Protocol Group B)
- Design: purchased Milipore (Millipore)
- particulars: 0.3 μM compound; Protocol Group B; 0.3 µM
valueKind: Percentage inhibition of ligand binding, Adrenergic α2A (0.3 μM) (%)

molecule	measuredValue
CN1CCc2c(c3cc(C(F)(F)F)ccc3n2CC(OC2CCCC2)c2ccncc2)C1 (single isomer, unassigned) [60a]	50
Cc1ccc2c(c1)c1c(n2CC(O)c2ccccn2)CC2CCCN2C1 (single isomer, unassigned) [45c]	−11
CC(O)(Cn1c2c(c3cc(Cl)cc(F)c31)C1CCCN1CC2)c1cccnc1 (single isomer, unassigned) [53d]	5

[P] Cc1cc(F)cc2c3c(n(CC(C)(O)c4ccncc4)c12)CC1CCCN1C3 (single isomer, unassigned) [78d]
[Q] Cc1ccc2c(c1)c1c(n2CC(O)c2ccccn2)CC2CCCN2C1 (single isomer, unassigned) [45d]
Which gives the smaller Percentage inhibition of ligand binding, Adrenergic α2A (0.3 μM) number: P or Q ? Give the label under which the chosen entry appears.
P
(P: −4%, Q: −2%)

[I] Cc1ccc2c(c1)c1c(n2CC(C)(O)c2cncc(F)c2)CCN(C)C1 (single isomer, unassigned) [46b]
[II] Cc1ccc2c(c1)c1c(n2CC(OC2CCCC2)c2ccncc2)CCN(C)C1 (single isomer, unassigned) [35b]
[III] CC(O)(Cn1c2c(c3cc(Cl)cc(F)c31)CN1CCCC1C2)c1ccncc1 (single isomer, unassigned) [86d]
[IV] OC(Cn1c2c(c3cc(F)ccc31)C1CCCN1CC2)c1ccncc1 (single isomer, unassigned) [18d]
Output the entries ranked by Percentage inhibition of ligand binding, Adrenergic α2A (0.3 μM) from maximum down to minimum. Submit the labels in the order that the ranking request calls for.
II, IV, III, I
